system: Bacillus subtilis DB104 (SP-AmyQ fusion secretion); assay: AmyQ secretion efficiency, weighted average sort bin (1 = best secretion, 10 = worst) (bin number (weighted average, 1-10)); higher = lower secretion efficiency
Binary call on AmyQ secretion efficiency: 1.0 from 6 upward, 0.0 beneath that.

MRGKSAVLLSLIMLIAGFLISFVFQM	1.0
MLKKKWMVGLLAGCLAAGGFSYNAFLTEN	1.0
MKKRLIGFLVLVPALIMSGITLIEANSE	1.0
MNKFLKSNFRFLLAAALGISLLVLFVIFITFASSNFIKASND	0.0
MGLGKKLSVAVAASFMSLSISLPGGPAVQAAEG	0.0
MKKLIVLLFFSFFGVQPIHAKKQ	0.0
MKLSVKIAGVLTVAAAAMTAKMYATSKGN	1.0
MKRRKRRYLLLGILCSAAVFLIGAPSRALGAEV	0.0
MNKLKRLSMLTVMIASVFIFSSSALAAQY	0.0
MKLSVKIAGVLTVAAAAMTAKMYKTAKGN	1.0
MLKKIALTLCPAIVGSLLFFTAPNSAHVS	1.0
MKLSVKIAGVLTVAATAKMYATAKGN	1.0
MMKKGLLAGALTATVLFGTCAVDVPGIISPKTAEAASR	0.0
MRPVFPLILSAVLFLSCFFGARQTEASYSKR	0.0
MKSKWMSGLLLVAVGFSFTQVMVHEGET	0.0
MKKKKMLSMLTVMIASLFIFSSQALAVQY	0.0
MKRCKRLIVCSLAAILLLIPSVSFAADS	0.0
MSSGIIVAGLAVSAVVGSSMAAAPAEAKTI	1.0
MKKCLAVTLVFGSMSFPTLTNSGGFKE	0.0
MFLRKILLSSALSLGMLVSAAPVLATSS	0.0
MLKKIALTLCPAIVGSLLFFTDEDASAHVS	0.0
MKKSQYFIVFICFFVLFSVHPIAAANADS	0.0
MLSSKWMVGLLAGCLAAGGFSYNAFATEN	0.0
MKSKGSIMACLILFSFTITTFINTETISKFSN	1.0
MRSYIKVLTMCFLGLILFVPTALAARK	0.0
MTFTKVVGFLSVLGLAAVFPLTAQAEKA	0.0
MKWYCSICCAAVLLAGGAAQAEAV	0.0
MKKTIMSFVAVAALSTTAFRRRKKKHASAKEI	1.0
MKWMCSICCAAVLLAGGAAASSSVVAQAEAV	0.0
MKSKGSIMSACLILFSFTITTFINTETISAFSN	0.0
MKRLCRKKRKKSLFLVLLPGKALGAVD	1.0
MKKLAAGLTASAIVGTTLVVTPAEAATI	0.0
MKRKIVRMTLPLLIVCLAFSSFSASARAASE	0.0
MKKSQYTTLFIVFICFFVLFSVHPIAAAAADS	0.0

###

tested on: Bacillus subtilis DB104 (SP-AmyQ fusion secretion); assay: AmyQ secretion efficiency, weighted average sort bin (1 = best secretion, 10 = worst) (bin number (weighted average, 1-10)); higher = lower secretion efficiency
observed property: AmyQ secretion efficiency

MKLRKVLTGSVLSLGLLVSASPTFATSP	1.93
MRKAVFVIMISFLIATVNVNTAHAAID	3.36
MKKWMITIAMLILAGIALFVFISPTSSSTTFLKSHKT	7.57
MTMLRKIIGWILLLCIIPLFAFTVIASFKEV	6.97
MLKKKKTQYQILVGSTLGAFSFSSDASAKHV	5.99
MKTKTLFIFSAILTLSIFAPNEGFAQTA	3.32
MKTKTLFIFSAILTLSIFAPNEMFAQTA	1.9
MNLRKILLSSALSLGMLVSAAPVLATEE	1.83
MMVCMKSIVRFLVSLIIGTFVISVPFMANAQSD	2.06
MKKVKKRRIICLSLILSVLAAPPSGAKAESV	1.81
MMKKLFHSTLIVLLFFSFFGVSPIHAKKQ	2.2
MMKKLFHSTLIVLLFFSFFGVQPGHAKKQ	2.96
MKTLRTLCVLMILSGVIFFGLKDIDAKDI	6.44
MGLGKKLSVAVAASFMSLSISLPGVQYAEG	4.06
MKKAFILSAAAAVGLFTFGGVQQASEKEL	6.66
MKRLFMKASLVLFAVVFVFAVKGAGAKAETH	1.83
MGLGKKLMVAVAAIFMMLMIFLPGVQAAEG	1.54
MRPVFPLILSAVLFLSCFFGARQTEASNSKR	2.41
MKKLLAAGIIGLLTVSIASPSFPAEK	7.88
MKFVKRRIRRKRTILMLSVTSLFALQPSAKAAEH	3.06
MKKWMAGLFLAAAVLLCLMVPQQMQGASS	5.46
MKKAFLVFLSVVLVTTVFLVKQQESVAQVKQL	3.34
MKKQIITATTAVVLGSTLFASPASAQSI	1.55
MKMKSGMEQAVSVLLLLSRLPVQASLRRK	7.08

###

tested on: Bacillus subtilis DB104 (SP-AmyQ fusion secretion); assay: AmyQ secretion efficiency, weighted average sort bin (1 = best secretion, 10 = worst) (bin number (weighted average, 1-10)); higher = lower secretion efficiency
// reported AmyQ secretion efficiency per item
observed property: AmyQ secretion efficiency

MKSKGSIMACLILFSFTITDEINTETISAFSN	6.09
MRKWYFILLAGVLTSVILAFVYDKTKYNEE	4.09
MKRIRIPMTLALGAALTIAPLDKASAEEN	3.1
MKSKWMSRKRRVAVGFSFTQVMVHAGET	6.31
MFGTLFRVCFLAALIMAFTLPNSVYAQKP	2.52
MLKKKWMVGLLAGCLAAGKKKYNAFATEN	7.66
MMKKLFHSTLIVLLFFSFFGVQPEIHAKKQ	2.24
MTKLKMLSMLRKKKRRLFIFSSQALAVQY	6.63
MLKKKWMVGLLAGCLAAGGFSYNAFTTEN	6.95
MKKAAAVLLSLGLVFKKRRRKKHVAEAKTK	7.39
MAIIIAIIAAVIVIAALITFNVHNASPG	7.6
MRKSLITLGLASIVIGTSSFLIPFTSKTASAETL	2.2
MKLKSKLLLSCLALSTVFVATTICNAPTH	5.85
MRSYIKSKKRCKQQLILFVPTALADNS	7.44

###

system: Bacillus subtilis DB104 (SP-AmyQ fusion secretion); assay: AmyQ secretion efficiency, weighted average sort bin (1 = best secretion, 10 = worst) (bin number (weighted average, 1-10)); higher = lower secretion efficiency
Binary call on AmyQ secretion efficiency: condition met from 3 upward, condition not met beneath that.

MLKKVILAAFILVGSTLGAFSFSSDASAARK	condition not met
MKNMSCKLVVSVTLFFSFLTIGPLAHCQNS	condition not met
MRMLWRSLALCGLALTLAPCVQAAEP	condition not met
MKLWMRKTLVVLFTIVTFGLVSPPAAFMADKP	condition not met
MLLNLAAGLTASAIVGTTLVVTPAEAATI	condition met
MKKWLIIAVSLAIAIVLFMYTKGEAKAAGK	condition not met
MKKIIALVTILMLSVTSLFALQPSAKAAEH	condition not met
MLKKKWMVGLLAGCLAGFSYNAFATEN	condition met

###

test system: Bacillus subtilis DB104 (SP-AmyQ fusion secretion); test: AmyQ secretion efficiency, weighted average sort bin (1 = best secretion, 10 = worst) (bin number (weighted average, 1-10)); higher = lower secretion efficiency
Lab note: class by AmyQ secretion efficiency, see lower level = under 3, middle level = from 3 up to 6, upper level = 6 and over

MGRFSTAYLLLGILCSAAVFLIGAPSRALGAEV	lower level
MKKKRLLLATSALTFSLSLVLPLDGHAKAQEV	lower level
MKKRKRRNFKRFIAAFLVLALMISLVPADALAKST	lower level
MRKILLSSALSLGMLVSAAPVLATSS	lower level
MKKAAAVLLSLGLVFVFVYGAGHVAEAKTK	lower level
MKKIVSILFMFGLVMFFFTFTAIGVFAADK	middle level
MRGKSAKRLSLIMLIAGFLISFSFQM	upper level
MKKKQVMLALTAAAGLGLTALHSAPAAKEAPL	upper level
MKIRKILLSSALSFGMLVISAVPALAAGT	lower level
MKLSVKIAGVLTVAAAAMTAKMYATLKGN	upper level
MGLGKKLSVAVAASFMSLSISLPGRQAAEG	middle level
MKRLLVSLRVWMVFLMNWVTPDRKTTPSGAAAAVY	upper level
MKRKQYSGRKLSIIVAYPIQTNASPM	upper level
MRKKLKWLSFLLGFIILLFLFKYQPSNNDS	upper level
MKKRLIAPMLLSAASLAFFAMSGSAQKAAY	upper level
MMKKGLLAGALTATVLFGTCAVGVPGIISPKTAEAASQ	lower level
MRSYIKVLTMCFLGLILFVPTALYDNS	upper level
MPYLKRVLLLLVTGLFMSLFAVTATASQQTG	lower level
MKWMCSICCAAVLLAGGAAQARRK	upper level
MTTKFTALAVFLLCFMPAAKIKRKHTQASLL	upper level
MKQGKFVFLILLLMLTLVVAPKEKAEAASS	lower level
MRKYTVIASILLSFLSVLFGVAHESKAFPV	middle level
MKLRKVRKGSVLSLGLLVSASPAFATSP	middle level
MKKKKKRIITATTAVVLGSTLFAGAASAQSI	lower level
MLKRTSFVSSLRRKRKKLLSILLPSGQAHAQSA	upper level
MFGWMAGLFLAAAVLLCLMVPQQIQGASS	middle level
MKRLLILLLIIIMLLGGTTFAPSAFAKQD	lower level
MKKAFLVFLSVVLVTTVFLVKQQESVDQAKQL	middle level
MKLSVKIAGVLTVAAAAMTAKMYATTKGN	middle level
MKKWLIIAVSLAIAIVLFMSVSFFAKAAGM	middle level
MKTLRTLCVLMILSGVIFFGLKYDAKDI	middle level
MLTKRLLTIYIMLLGLIAWFPGAAQAASK	lower level
